Tested Target: human ether-à-go-go-related gene (hERG) potassium channel (human, UniProt Q12809);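 note: peak tail current of the secondary pulse compared with the same well before compound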
Sequence (Q12809 whole entry, looked up): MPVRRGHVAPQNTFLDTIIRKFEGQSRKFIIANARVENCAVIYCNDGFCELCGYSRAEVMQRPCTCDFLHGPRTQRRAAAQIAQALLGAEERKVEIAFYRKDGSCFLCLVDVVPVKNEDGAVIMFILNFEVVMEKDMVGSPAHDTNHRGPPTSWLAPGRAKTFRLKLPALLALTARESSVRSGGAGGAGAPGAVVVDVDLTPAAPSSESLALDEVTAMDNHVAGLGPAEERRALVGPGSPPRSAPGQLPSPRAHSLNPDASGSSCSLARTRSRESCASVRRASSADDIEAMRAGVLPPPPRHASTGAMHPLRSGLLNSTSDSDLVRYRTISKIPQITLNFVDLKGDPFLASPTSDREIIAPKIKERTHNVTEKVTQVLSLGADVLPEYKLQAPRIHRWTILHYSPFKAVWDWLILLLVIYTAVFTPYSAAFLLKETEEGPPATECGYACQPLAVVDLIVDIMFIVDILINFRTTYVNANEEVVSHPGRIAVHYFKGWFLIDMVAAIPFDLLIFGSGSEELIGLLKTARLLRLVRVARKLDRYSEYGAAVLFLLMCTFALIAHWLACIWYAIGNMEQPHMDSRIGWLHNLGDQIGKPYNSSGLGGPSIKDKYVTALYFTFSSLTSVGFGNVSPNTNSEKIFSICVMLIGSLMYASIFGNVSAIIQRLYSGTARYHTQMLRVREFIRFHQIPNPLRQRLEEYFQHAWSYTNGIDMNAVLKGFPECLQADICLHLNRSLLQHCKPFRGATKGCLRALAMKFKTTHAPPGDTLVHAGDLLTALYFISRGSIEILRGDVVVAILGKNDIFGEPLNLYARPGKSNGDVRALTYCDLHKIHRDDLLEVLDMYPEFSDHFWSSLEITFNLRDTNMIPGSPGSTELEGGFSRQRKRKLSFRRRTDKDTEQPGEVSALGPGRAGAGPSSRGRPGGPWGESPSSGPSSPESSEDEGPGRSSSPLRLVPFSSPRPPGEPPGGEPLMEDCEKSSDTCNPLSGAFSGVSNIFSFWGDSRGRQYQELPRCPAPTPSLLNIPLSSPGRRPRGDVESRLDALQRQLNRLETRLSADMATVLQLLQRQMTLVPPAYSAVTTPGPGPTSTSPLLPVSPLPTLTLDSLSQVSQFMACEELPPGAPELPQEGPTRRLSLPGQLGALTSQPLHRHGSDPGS
Experiment Description: primary screen, population patch clamp on CHO cells stably expressing hERG; higher = less effect of the substance
Screen size: about 310,000 compounds; about 14,000 (4.5%) showed an effect of 50% or more. Effects have a minus sign here. For the sample, strong results were picked, then their nearest neighbours and some compounds at random.
Value Kind: hERG current change (%, negative = inhibition) at 10uM (%)

COC(=O)c1ccc(NS(=O)(=O)c2ccc(-c3cc(C)no3)s2)cc1 ... 10.5
O=c1cc(-c2ccc(O)c(O)c2)oc2cc(O)c(C3OC(CO)C(O)C(O)C3O)c(O)c12 (stereo not drawn) ... 3.72
O=C(N/N=C/c1cc([N+](=O)[O-])ccc1O)c1cccc(N2CCCC2=O)c1 ... 3.22
COc1ccc(-c2nc(CS(=O)CC(=O)NC3CCC(C)CC3)c(C)o2)cc1OC (stereo not drawn) ... -34.6
C=CCn1c(SCC(=O)Nc2cc(C)on2)nc2sc3c(c2c1=O)CCCC3 ... -4
COc1ccc(OCC(=O)N2CCN(S(=O)(=O)c3ccccc3[N+](=O)[O-])CC2)cc1 ... -31.2
COC(=O)N/N=C(\C)c1ccccc1OC(F)F ... 1.52
Cc1ccc(S(=O)(=O)N(CC2CO2)c2cc(Cl)ccc2Cl)cc1 (stereo not drawn) ... -6.93
COc1ccccc1NS(=O)(=O)c1cc(-c2cc(C)no2)ccc1OC ... -5.52
